Reference for the values: paper PMC11855827

Percentage of motility inhibition 0 h for assorted compounds
Tested on: C. elegans
run-parameters: Table S2, C. elegans SS assay, 110 μM, 0 h, averages of 4 data points
Express it in %; write the number only.

Nc1nc(=O)[nH]c2c1ncn2[C@@H]1O[C@H](CO)[C@@H](O)[C@H]1O [Crotonoside]
0
Cc1ccc(NC(=O)C(=O)NC2CC(C)(C)NC(C)(C)C2)cc1 [YYA‐021]
44
O=Cc1c[nH]c2ccccc12 [Indole‐3‐carboxaldehyde]
0

Now consider a different compound.
May I ask what Percentage of motility inhibition 0 h has been recorded for CC1(C)S[C@@H]2[C@H](NC(=O)[C@H](NC(=O)N3CCN(S(C)(=O)=O)C3=O)c3ccccc3)C(=O)N2[C@H]1C(=O)[O-].[Na+] [Mezlocillin (sodium)] ?
0
